Below, each of the compounds is paired with its reported CC50 at 72 h value.
Assay: General cytotoxicity on primary differentiated HepaRG cells (72 h)
Type: cell-based
Conditions: human, general toxicity, mean value from several measurements
Description: General cytotoxicity of CDK7 inhibitors according to the present invention was investigated using primary differentiated HepaRG cells (Biopredic Int, order no. HPR101). A week before the measurement, the cells were thawed and maintained in Basal hepatic cell medium (Biopredic Int, order no. MIL700079) supplemented with HepaRG maintenance/metabolism medium supplement with antibiotics (Biopredic Int, order no. ADD620C). […] Cell viability was assessed as described above.
measurement-label: CC50 at 72 h

>  <entry-smiles>
Nc1ccccc1Nc1nc(N[C@H]2CCCNC2)ncc1C(F)(F)F

>  <measurement-label>
CC50 at 72 h

>  <recorded-value>
> 2000 nM

$$$$
>  <entry-smiles>
COCCN1CCCc2c(-c3nc(N[C@H]4CCC(C)(C)NC4)ncc3C(F)(F)F)c[nH]c2C1=O

>  <measurement-label>
CC50 at 72 h

>  <recorded-value>
> 2000 nM

$$$$
>  <entry-smiles>
FC(F)(F)c1cnc(N[C@H]2CCCNC2)nc1Oc1cccc2cccnc12

>  <measurement-label>
CC50 at 72 h

>  <recorded-value>
> 2000 nM

$$$$
>  <entry-smiles>
Cn1cc(NC(=O)c2cc(-c3nc(N[C@H]4CCCNC4)ncc3C(F)(F)F)c[nH]2)cn1

>  <measurement-label>
CC50 at 72 h

>  <recorded-value>
> 2000 nM

$$$$
>  <entry-smiles>
CNC(=O)c1cc(-c2nc(N[C@H]3CCCNC3)ncc2C(F)(F)F)c[nH]1

>  <measurement-label>
CC50 at 72 h

>  <recorded-value>
500 to 2000 nM

$$$$
>  <entry-smiles>
O=c1c2[nH]cc(-c3nc(N[C@H]4CCCNC4)ncc3C(F)(F)F)c2ccn1Cc1ccccc1

>  <measurement-label>
CC50 at 72 h

>  <recorded-value>
100 to 500 nM

$$$$

----------
biological target: CDK7/Cyclin H/MNAT1 (Homo sapiens, UniProt P50613); assay: Inhibition of CDK7/Cyclin H/MNAT1 kinase activity (ADP-Glo); format: biochemical; conditions: mean value from several measurements; read-out: IC50 CDK7/Cyclin H/MNAT
Sequence (P50613 whole entry): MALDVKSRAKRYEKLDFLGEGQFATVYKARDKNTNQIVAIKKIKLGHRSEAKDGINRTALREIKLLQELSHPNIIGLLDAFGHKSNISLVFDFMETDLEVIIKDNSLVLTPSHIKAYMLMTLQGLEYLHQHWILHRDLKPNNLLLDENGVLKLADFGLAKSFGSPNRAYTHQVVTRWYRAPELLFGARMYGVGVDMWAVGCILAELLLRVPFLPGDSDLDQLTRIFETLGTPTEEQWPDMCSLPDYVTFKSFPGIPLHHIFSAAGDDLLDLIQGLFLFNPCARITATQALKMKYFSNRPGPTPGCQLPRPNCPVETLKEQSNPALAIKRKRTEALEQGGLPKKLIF
Sequence (P51946 whole entry partner): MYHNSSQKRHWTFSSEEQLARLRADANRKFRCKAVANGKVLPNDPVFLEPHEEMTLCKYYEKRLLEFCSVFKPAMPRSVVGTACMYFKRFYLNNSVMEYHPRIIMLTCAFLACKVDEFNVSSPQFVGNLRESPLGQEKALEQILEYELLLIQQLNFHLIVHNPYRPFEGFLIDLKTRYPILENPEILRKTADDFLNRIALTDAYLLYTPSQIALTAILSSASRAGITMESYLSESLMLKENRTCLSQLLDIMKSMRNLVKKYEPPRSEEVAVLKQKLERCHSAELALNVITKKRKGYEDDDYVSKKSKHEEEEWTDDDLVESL
Sequence (P51948 whole entry partner): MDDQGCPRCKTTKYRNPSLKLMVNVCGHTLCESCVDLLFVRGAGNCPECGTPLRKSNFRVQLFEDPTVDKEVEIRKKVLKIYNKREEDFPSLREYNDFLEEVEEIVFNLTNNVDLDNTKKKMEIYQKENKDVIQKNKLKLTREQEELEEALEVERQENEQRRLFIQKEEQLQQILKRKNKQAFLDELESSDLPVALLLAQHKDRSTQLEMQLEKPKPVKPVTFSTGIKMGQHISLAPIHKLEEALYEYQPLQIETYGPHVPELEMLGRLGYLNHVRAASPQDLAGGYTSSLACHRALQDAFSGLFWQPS

>  <entry-smiles>
Cc1nc(-c2cc(-c3nc(N[C@H]4CCCNC4)ncc3C(F)(F)F)c[nH]2)no1

>  <IC50>
< 5 nM

$$$$
>  <entry-smiles>
CC1(C)CC[C@H](Nc2ncc(C(F)(F)F)c(-c3c[nH]c4c3CCCN(C3CCC3)C4=O)n2)CN1

>  <IC50>
< 5 nM

$$$$
>  <entry-smiles>
Cn1ccc2c(-c3nc(N[C@H]4CCCNC4)ncc3C(F)(F)F)c[nH]c2c1=O

>  <IC50>
< 5 nM

$$$$
>  <entry-smiles>
Cn1cc(-n2ccc3c(-c4nc(N[C@H]5CCC(C)(C)NC5)ncc4C(F)(F)F)c[nH]c3c2=O)cn1

>  <IC50>
< 5 nM

$$$$
>  <entry-smiles>
NS(=O)(=O)c1cccc(Nc2nc(N[C@H]3CCCNC3)ncc2C(F)(F)F)c1

>  <IC50>
5 to 50 nM

$$$$
>  <entry-smiles>
FC(F)(F)c1cnc(N[C@H]2CCCNC2)nc1-c1c[nH]c(-c2ncccn2)c1

>  <IC50>
< 5 nM

$$$$
>  <entry-smiles>
Cn1c(-c2cc(-c3nc(N[C@H]4CCCNC4)ncc3C(F)(F)F)c[nH]2)nc2ccccc21

>  <IC50>
5 to 50 nM

$$$$
>  <entry-smiles>
O=C(Nc1nccs1)c1cc(-c2nc(N[C@H]3CCCNC3)ncc2C(F)(F)F)c[nH]1

>  <IC50>
5 to 50 nM

$$$$
>  <entry-smiles>
CC(C)N1CCCc2c(-c3nc(N[C@H]4CCC(C)(C)NC4)ncc3C(F)(F)F)c[nH]c2C1=O

>  <IC50>
< 5 nM

$$$$
>  <entry-smiles>
CN1CC=Cc2c(-c3nc(N[C@H]4CCCNC4)ncc3C(F)(F)F)c[nH]c2C1=O

>  <IC50>
< 5 nM

$$$$

----------
assay: General cytotoxicity on primary differentiated HepaRG cells (72 h); type: cell-based; conditions: human, general toxicity, mean value from several measurements
Below, each of the compounds is paired with its reported CC50 at 72 h value.
measurement-label: CC50 at 72 h

>  <compound>
O=C(Nc1ccncc1)c1cc(-c2nc(N[C@H]3CCCNC3)ncc2C(F)(F)F)c[nH]1

>  <recorded-value>
500 to 2000 nM

$$$$
>  <compound>
O=c1c2[nH]cc(-c3nc(N[C@H]4CCCNC4)ncc3C(F)(F)F)c2ccn1C1CCOCC1

>  <recorded-value>
> 2000 nM

$$$$
>  <compound>
Cn1cc(N2CCCc3c(-c4nc(N[C@H]5CCC(C)(C)NC5)ncc4C(F)(F)F)c[nH]c3C2=O)cn1

>  <recorded-value>
> 2000 nM

$$$$
>  <compound>
FC(F)(F)c1cnc(N[C@H]2CCCNC2)nc1-n1cnc2ccccc21

>  <recorded-value>
> 2000 nM

$$$$
>  <compound>
FC(F)(F)c1cnc(N[C@H]2CCCNC2)nc1-c1cc[nH]c1

>  <recorded-value>
500 to 2000 nM

$$$$
>  <compound>
CC(C)N1CCCc2c(-c3nc(N[C@H]4CCC(C)(C)NC4)ncc3C(F)(F)F)c[nH]c2C1=O

>  <recorded-value>
> 2000 nM

$$$$
>  <compound>
CN1CC=Cc2c(-c3nc(N[C@H]4CCCNC4)ncc3C(F)(F)F)c[nH]c2C1=O

>  <recorded-value>
100 to 500 nM

$$$$
>  <compound>
CN1CCC[C@H](Nc2ncc(C(F)(F)F)c(-c3c[nH]c(C(=O)N(C)C)c3)n2)C1

>  <recorded-value>
> 2000 nM

$$$$
>  <compound>
O=c1c2[nH]cc(-c3nc(N[C@H]4CCCNC4)ncc3C(F)(F)F)c2ccn1C1CC1

>  <recorded-value>
100 to 500 nM

$$$$
>  <compound>
Cn1cc(-n2ccc3c(-c4nc(N[C@H]5CCC(C)(C)NC5)ncc4C(F)(F)F)c[nH]c3c2=O)cn1

>  <recorded-value>
> 2000 nM

$$$$
>  <compound>
O=C(Nc1ncc[nH]1)c1cc(-c2nc(N[C@H]3CCCNC3)ncc2C(F)(F)F)c[nH]1

>  <recorded-value>
500 to 2000 nM

$$$$
>  <compound>
FC(F)(F)c1cnc(N[C@H]2CCCNC2)nc1-c1c[nH]c(-c2ncccn2)c1

>  <recorded-value>
100 to 500 nM

$$$$
>  <compound>
O=c1c2[nH]cc(-c3nc(N[C@H]4CCCNC4)ncc3C(F)(F)F)c2ccn1-c1nccs1

>  <recorded-value>
500 to 2000 nM

$$$$
>  <compound>
CN1CCCc2c(-c3nc(N[C@H]4CCCNC4)ncc3C(F)(F)F)c[nH]c2C1=O

>  <recorded-value>
500 to 2000 nM

$$$$
>  <compound>
CC1(C)CC[C@H](Nc2ncc(C(F)(F)F)c(-c3c[nH]c4c3CCCN(CC3CCCC3)C4=O)n2)CN1

>  <recorded-value>
> 2000 nM

$$$$
>  <compound>
O=C(NCC(F)(F)F)c1cc(-c2nc(N[C@H]3CCCNC3)ncc2C(F)(F)F)c[nH]1

>  <recorded-value>
100 to 500 nM

$$$$
>  <compound>
CC1(C)CC[C@H](Nc2ncc(C(F)(F)F)c(-c3c[nH]c4c3CCCN(C3CC3)C4=O)n2)CN1

>  <recorded-value>
> 2000 nM

$$$$
>  <compound>
O=C(Nc1nccs1)c1cc(-c2nc(N[C@H]3CCCNC3)ncc2C(F)(F)F)c[nH]1

>  <recorded-value>
100 to 500 nM

$$$$
>  <compound>
O=C1c2[nH]cc(-c3nc(N[C@H]4CCCNC4)ncc3C(F)(F)F)c2CCCN1c1ccccn1

>  <recorded-value>
> 2000 nM

$$$$
>  <compound>
Cn1ccnc1N1CCCc2c(-c3nc(NC4CCCNC4)ncc3C(F)(F)F)c[nH]c2C1=O (stereo not drawn)

>  <recorded-value>
> 2000 nM

$$$$
>  <compound>
FC(F)(F)c1cnc(N[C@H]2CCCNC2)nc1-c1c[nH]c(-c2ccccc2)c1

>  <recorded-value>
500 to 2000 nM

$$$$
>  <compound>
Cn1nnc(-c2cc(-c3nc(N[C@H]4CCCNC4)ncc3C(F)(F)F)c[nH]2)n1

>  <recorded-value>
100 to 500 nM

$$$$
>  <compound>
FC(F)(F)c1cnc(N[C@H]2CCCNC2)nc1-n1ccc2ccccc21

>  <recorded-value>
> 2000 nM

$$$$
>  <compound>
FC(F)(F)c1cnc(N[C@H]2CCCNC2)nc1-c1c[nH]c(-c2ccccn2)c1

>  <recorded-value>
500 to 2000 nM

$$$$
